# reported pIC50; entries follow
assayed_system: HSP60/HSP10 (Homo sapiens, UniProt P10809)
Sequence (P10809 whole entry): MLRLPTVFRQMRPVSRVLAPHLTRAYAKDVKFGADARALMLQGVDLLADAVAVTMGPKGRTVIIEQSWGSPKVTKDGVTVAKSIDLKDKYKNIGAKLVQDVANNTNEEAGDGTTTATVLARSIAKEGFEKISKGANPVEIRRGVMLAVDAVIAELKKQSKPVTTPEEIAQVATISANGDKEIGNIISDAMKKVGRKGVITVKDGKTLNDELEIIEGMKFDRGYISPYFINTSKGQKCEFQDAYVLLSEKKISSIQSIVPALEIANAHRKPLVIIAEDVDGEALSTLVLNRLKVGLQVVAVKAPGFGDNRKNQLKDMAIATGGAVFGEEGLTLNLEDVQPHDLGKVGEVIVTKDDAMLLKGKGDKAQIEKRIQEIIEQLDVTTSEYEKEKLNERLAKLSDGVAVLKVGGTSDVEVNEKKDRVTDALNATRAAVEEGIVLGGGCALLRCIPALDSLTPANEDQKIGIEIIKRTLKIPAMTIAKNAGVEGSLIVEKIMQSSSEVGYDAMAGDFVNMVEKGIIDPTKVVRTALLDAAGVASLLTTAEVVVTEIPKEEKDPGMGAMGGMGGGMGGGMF
Sequence (P61604 whole entry, further chain): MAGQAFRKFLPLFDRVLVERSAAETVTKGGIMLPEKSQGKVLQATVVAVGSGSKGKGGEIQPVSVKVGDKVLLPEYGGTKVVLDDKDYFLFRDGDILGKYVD
method_description: Inhibition of human mitochondrial HSP60/HSP10-ATPase activity expressed in Escherichia coli DH5alpha/BL21 (DE3) assessed as inhibition of denatured MDH refolding preincubated for 10 mins followed by ATP addition measured after 40 to 60 mins by malachite green dye based fluorescence assay
pIC50: −log10 of the molar value.

# count of solved cases: 5
smiles_structure: O=S(=O)(Nc1ccc(-c2nc3cc(NS(=O)(=O)c4ccccc4Br)ccc3o2)cc1)c1ccccc1Br
value_observed: < 3.60
--
smiles_structure: O=C(O)c1ccccc1S(=O)(=O)Nc1ccc(-c2nc3cc(NS(=O)(=O)c4ccccc4C(=O)O)ccc3o2)cc1
value_observed: < 3.60
--
smiles_structure: O=c1ccc2cc(S(=O)(=O)Nc3ccc(-c4nc5cc(NS(=O)(=O)c6ccc7oc(=O)ccc7c6)ccc5o4)cc3)ccc2o1
value_observed: 3.70
--
smiles_structure: O=S(=O)(Nc1ccc(-c2nc3cc(NS(=O)(=O)c4cccc5ccccc45)ccc3o2)cc1)c1cccc2ccccc12
value_observed: 3.84
--
smiles_structure: O=C(O)c1ccc(S(=O)(=O)Nc2ccc(-c3nc4cc(NS(=O)(=O)c5ccc(C(=O)O)cc5)ccc4o3)cc2)cc1
value_observed: < 3.60

In plain terms, `O=S(=O)(Nc1ccc(-c2nc3cc(NS(=O)(=O)C(F)(F)F)ccc3o2)cc1)C(F)(F)F` has a documented pIC50 of < 3.60

In plain terms, `O=C(O)c1cccc(S(=O)(=O)Nc2ccc(-c3nc4cc(NS(=O)(=O)c5cccc(C(=O)O)c5)ccc4o3)cc2)c1` has a documented pIC50 of < 3.60

In plain terms, `O=S(=O)(Nc1ccc(-c2nc3cc(NS(=O)(=O)c4ccc5nsnc5c4)ccc3o2)cc1)c1ccc2nsnc2c1` has a documented pIC50 of 3.90

In plain terms, `O=S(=O)(Nc1ccc(-c2nc3cc(NS(=O)(=O)c4cccc(Cl)c4)ccc3o2)cc1)c1cccc(Cl)c1` has a documented pIC50 of < 3.60

In plain terms, `O=S(=O)(Nc1ccc(-c2nc3cc(NS(=O)(=O)c4cccs4)ccc3o2)cc1)c1cccs1` has a documented pIC50 of < 3.60

In plain terms, `CS(=O)(=O)Nc1ccc(-c2nc3cc(NS(C)(=O)=O)ccc3o2)cc1` has a documented pIC50 of < 3.60

In plain terms, `O=S(=O)(Nc1ccc(-c2nc3cc(NS(=O)(=O)c4cccc5nsnc45)ccc3o2)cc1)c1cccc2nsnc12` has a documented pIC50 of 3.82

In plain terms, `O=S(=O)(Nc1ccc(-c2nc3cc(NS(=O)(=O)c4cccc5nonc45)ccc3o2)cc1)c1cccc2nonc12` has a documented pIC50 of 3.67

In plain terms, `O=S(=O)(Nc1ccc(-c2nc3cc(NS(=O)(=O)c4ccccc4)ccc3o2)cc1)c1ccccc1` has a documented pIC50 of < 3.60

In plain terms, `O=S(=O)(Nc1ccc(-c2nc3cc(NS(=O)(=O)c4cccc(C(F)(F)F)c4)ccc3o2)cc1)c1cccc(C(F)(F)F)c1` has a documented pIC50 of < 3.60

In plain terms, `O=S(=O)(Nc1ccc(-c2nc3cc(NS(=O)(=O)c4ccc(C(F)(F)F)cc4)ccc3o2)cc1)c1ccc(C(F)(F)F)cc1` has a documented pIC50 of < 3.60

----------
method_description: Cytotoxicity against HEK293 cells assessed as reduction in cell viability after 48 hrs by alamar blue assay
Type: toxicity, cell-based
cond: human
# reported EC50 at 48 h; entries follow
Lab book: enter the figure in µM, no units written.

In plain terms, `O=S(=O)(Nc1ccc(-c2nc3cc(NS(=O)(=O)c4ccc(F)cc4)ccc3o2)cc1)c1ccc(F)cc1` has a documented EC50 at 48 h of 21

In plain terms, `COc1ccccc1S(=O)(=O)Nc1ccc(-c2nc3cc(NS(=O)(=O)c4ccccc4OC)ccc3o2)cc1` has a documented EC50 at 48 h of 79

In plain terms, `O=S(=O)(Nc1ccc(-c2nc3cc(NS(=O)(=O)c4cccc(F)c4)ccc3o2)cc1)c1cccc(F)c1` has a documented EC50 at 48 h of 24

----------
# reported EC50 at 48 h; entries follow
method_description: Cytotoxicity against HEK293 cells assessed as reduction in cell viability after 48 hrs by alamar blue assay
Assay type: toxicity, cell-based
cond: human

# count of solved cases: 3
smiles_structure: Nc1cccc(S(=O)(=O)Nc2ccc(-c3nc4cc(NS(=O)(=O)c5cccc(N)c5)ccc4o3)cc2)c1
EC50 at 48 h: 58 µM

smiles_structure: COC(=O)c1cccc(S(=O)(=O)Nc2ccc(-c3nc4cc(NS(=O)(=O)c5cccc(C(=O)OC)c5)ccc4o3)cc2)c1
EC50 at 48 h: > 100 µM

smiles_structure: COc1ccc(S(=O)(=O)Nc2ccc(-c3nc4cc(NS(=O)(=O)c5ccc(OC)cc5)ccc4o3)cc2)cc1
EC50 at 48 h: 88 µM

In plain terms, `O=C(O)c1ccc(S(=O)(=O)Nc2ccc(-c3nc4cc(NS(=O)(=O)c5ccc(C(=O)O)cc5)ccc4o3)cc2)cc1` has a documented EC50 at 48 h of > 100 µM

----------
assayed_system: E. coli GroEL/ES (Escherichia coli, UniProt P0A6F5)
Sequence (P0A6F5 whole entry, looked up): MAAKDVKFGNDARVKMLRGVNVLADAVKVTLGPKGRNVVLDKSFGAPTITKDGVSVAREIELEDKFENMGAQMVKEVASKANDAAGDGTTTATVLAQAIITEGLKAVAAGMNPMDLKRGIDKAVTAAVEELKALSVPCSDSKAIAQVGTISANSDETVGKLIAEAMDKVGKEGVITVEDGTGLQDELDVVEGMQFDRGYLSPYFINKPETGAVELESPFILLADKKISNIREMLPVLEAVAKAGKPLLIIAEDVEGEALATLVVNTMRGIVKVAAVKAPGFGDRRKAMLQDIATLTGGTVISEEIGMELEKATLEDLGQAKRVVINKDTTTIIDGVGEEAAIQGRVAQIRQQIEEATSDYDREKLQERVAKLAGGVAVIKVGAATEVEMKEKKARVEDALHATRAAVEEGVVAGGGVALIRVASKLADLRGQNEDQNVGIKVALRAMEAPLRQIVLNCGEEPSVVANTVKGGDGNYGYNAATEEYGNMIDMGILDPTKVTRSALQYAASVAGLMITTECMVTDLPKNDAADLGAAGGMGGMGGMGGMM
method_description: Inhibition of Escherichia coli GroEL/GroES-ATPase activity expressed in Escherichia coli DH5alpha/BL21 (DE3) assessed as inhibition of denatured MDH refolding preincubated for 10 mins followed by ATP addition measured after 20 to 40 mins by malachite green dye based fluorescence assay
# reported pIC50; entries follow
Lab note — pIC50 values are minus log10 of concentrations in M.

smiles_structure: O=S(=O)(Nc1ccc(-c2nc3cc(NS(=O)(=O)c4cccc(C(F)(F)F)c4)ccc3o2)cc1)c1cccc(C(F)(F)F)c1
parameter: pIC50
value_observed: 3.67

// below: pIC50 requested for another compound
In plain terms, `O=S(=O)(Nc1ccc(-c2nc3cc(NS(=O)(=O)c4ccccc4C(F)(F)F)ccc3o2)cc1)c1ccccc1C(F)(F)F` has a documented pIC50 of 4.68

----------
# reported EC50 at 48 h; entries follow
method_description: Cytotoxicity against human THLE3 cells assessed as reduction in cell viability after 48 hrs by alamar blue assay
Format: toxicity, cell-based

# count of solved cases: 2
molecule: Cc1ccc(C(=O)Nc2ccc(S(=O)(=O)O)c3cc(S(=O)(=O)O)cc(S(=O)(=O)O)c23)cc1NC(=O)c1cccc(NC(=O)Nc2cccc(C(=O)Nc3cc(C(=O)Nc4ccc(S(=O)(=O)O)c5cc(S(=O)(=O)O)cc(S(=O)(=O)O)c45)ccc3C)c2)c1
EC50 at 48 h: > 100 µM
//
molecule: O=C(O)c1ccccc1S(=O)(=O)Nc1ccc(-c2nc3cc(NS(=O)(=O)c4ccccc4C(=O)O)ccc3o2)cc1
EC50 at 48 h: > 100 µM

In plain terms, `O=S(=O)(Nc1ccc(-c2nc3cc(NS(=O)(=O)c4ccc(C(F)(F)F)cc4)ccc3o2)cc1)c1ccc(C(F)(F)F)cc1` has a documented EC50 at 48 h of 21 µM

In plain terms, `O=S(=O)(Nc1ccc(-c2nc3cc(NS(=O)(=O)c4cccc(Cl)c4)ccc3o2)cc1)c1cccc(Cl)c1` has a documented EC50 at 48 h of 17 µM

In plain terms, NCCCC(N)(C(=O)O)C(F)F (stereo not given) has a documented EC50 at 48 h of > 100 µM

----------
method_description: Cytotoxicity against human THLE3 cells assessed as reduction in cell viability after 48 hrs by alamar blue assay
Format: toxicity, cell-based
parameter: EC50 at 48 h

smiles_structure: O=S(=O)(Nc1ccc(-c2nc3cc(NS(=O)(=O)c4ccc(Cl)cc4)ccc3o2)cc1)c1ccc(Cl)cc1
value_observed: 18 µM
//
smiles_structure: Nc1ccc(S(=O)(=O)Nc2ccc(-c3nc4cc(NS(=O)(=O)c5ccc(N)cc5)ccc4o3)cc2)cc1
value_observed: 38 µM
//
smiles_structure: Cc1ccccc1S(=O)(=O)Nc1ccc(-c2nc3cc(NS(=O)(=O)c4ccccc4C)ccc3o2)cc1
value_observed: 17 µM
//
smiles_structure: N#Cc1ccccc1S(=O)(=O)Nc1ccc(-c2nc3cc(NS(=O)(=O)c4ccccc4C#N)ccc3o2)cc1
value_observed: 93 µM
//
smiles_structure: Cc1cccc(S(=O)(=O)Nc2ccc(-c3nc4cc(NS(=O)(=O)c5cccc(C)c5)ccc4o3)cc2)c1
value_observed: 18 µM
//
smiles_structure: COC(=O)c1ccccc1S(=O)(=O)Nc1ccc(-c2nc3cc(NS(=O)(=O)c4ccccc4C(=O)OC)ccc3o2)cc1
value_observed: > 100 µM

In plain terms, `COc1ccc(S(=O)(=O)Nc2ccc(-c3nc4cc(NS(=O)(=O)c5ccc(OC)cc5)ccc4o3)cc2)cc1` has a documented EC50 at 48 h of > 100 µM

----------
assayed_system: HSP60/HSP10 (Homo sapiens, UniProt P10809)
method_description: Inhibition of human mitochondrial HSP60/HSP10-ATPase activity expressed in Escherichia coli DH5alpha/BL21 (DE3) assessed as inhibition of denatured MDH refolding preincubated for 10 mins followed by ATP addition measured after 40 to 60 mins by malachite green dye based fluorescence assay
parameter: pIC50
Lab note — pIC50 values are minus log10 of concentrations in M.

smiles_structure: O=[N+]([O-])c1ccccc1S(=O)(=O)Nc1ccc(-c2nc3cc(NS(=O)(=O)c4ccccc4[N+](=O)[O-])ccc3o2)cc1
pIC50: 3.71

Per the reported HSP60/HSP10 (Homo sapiens, UniProt P10809) data, `O=S(=O)(Nc1ccc(-c2nc3cc(NS(=O)(=O)c4cccc(O)c4)ccc3o2)cc1)c1cccc(O)c1` has pIC50 of 4.21

Data origin: ChEMBL document CHEMBL3856280
